Entry source: PubChem BioAssay AID1159580

For each of the compounds below, state its normalized growth.
Test: chemical genetic growth profiling, strain panel (AID 1159580);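 further: tested at 20 µM; growth read once vehicle control cultures reached saturation at 30 °C; 1 = growth at the plate median or of vehicle wells; lower values mean less growth of the strain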
Particulars: S. cerevisiae deletion strains, growth OD, locus YOR184W, strain ser1, stronger effect = lower value
In all, about 5,500 compounds went through this assay and about 2,000 (36%) were called active. Not shown: some 18% with an inconclusive outcome. The list shows a part of the results.

Take a look at these entries with their results.
{"Compound": "CCC(C)C(=O)O[C@@H]1C[C@@]2(C)[C@H](c3ccoc3)OC(=O)CC23OC2(C)O[C@]14[C@]1(C)[C@@H](CC(=O)OC)C5(C)CC1(O)[C@](O)(C5OC(=O)C1(C)OC1C)[C@@H](OC(C)=O)[C@]34O2 (some centres undefined)", "normalized growth": "0.996 (inactive)"}
{"Compound": "OCC(O)CN1CCN(c2ccccc2)CC1 (centres undefined)", "normalized growth": "1 (inactive)"}
{"Compound": "C/C=C(\\C)C(=O)O[C@H]1C[C@@H](OC(C)=O)[C@@]2(C(=O)OC)CO[C@@H]3C2[C@]12CO[C@](O)(C(=O)OC)[C@H]2[C@](C)(C12O[C@@]1(C)[C@H]1C[C@@H]2OC2OC=C[C@@]21O)[C@@H]3O (some centres undefined)", "normalized growth": "0.967 (inactive)"}

Record normalized growth for all entries; do not skip any.
1. CN1CCC(OC(c2ccccc2)c2ccccc2)CC1
2. COc1ccc(C(CN(C)C)C2(O)CCCCC2)cc1 (centres undefined)

["1.01 (inactive)", "1 (inactive)"]

Record normalized growth for all entries; do not skip any.
1. Clc1ccc(C(c2ccc(Cl)cc2)C(Cl)(Cl)Cl)cc1
2. Oc1cc(O)c2c(c1)O[C@H](c1cc(O)c(O)c(O)c1)[C@H](O)C2
3. O=C1c2ccc(O)cc2O[C@H](c2cc(O)c(O)c(O)c2)[C@H]1O
4. Oc1cc(O)c2c(c1)O[C@H](c1ccc(O)c(O)c1)[C@H](O)C2

["0.982 (inactive)", "1.02 (inactive)", "1.02 (inactive)", "1 (inactive)"]

* * *

Test: chemical genetic growth profiling, strain panel (AID 1159580);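 further: tested at 20 µM; growth read once vehicle control cultures reached saturation at 30 °C; 1 = growth at the plate median or of vehicle wells; lower values mean less growth of the strain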
Particulars: S. cerevisiae deletion strains, growth OD, locus YLL026W, stronger effect = lower value
Screen size: about 5,500 compounds; about 2,000 (36%) were called active. Not shown: some 18% with an inconclusive outcome. This is one part of the list.
For each of the compounds below, state its normalized growth.

Take a look at these entries with their results.
{"Compound": "CN(C)CCOC(c1ccc(Cl)cc1)c1ccccn1 (centres undefined)", "Result": "1.03 (inactive)"}
{"Compound": "OCCc1ccccc1", "Result": "0.97 (inactive)"}
{"Compound": "NCCc1cnc[nH]1", "Result": "1.02 (inactive)"}
{"Compound": "O=C1NCC2(CCN(CCc3ccccc3)CC2)O1", "Result": "1 (inactive)"}
{"Compound": "Cc1ncc(CNC(=O)N(CCCl)N=O)c(N)n1", "Result": "1.01 (inactive)"}

Record normalized growth for all entries; do not skip any.
1. N[C@@H](Cc1ccc(N(CCCl)CCCl)cc1)C(=O)O
2. COc1ccc2c(c1)OC/C(=C/c1ccc(OC)c(OC)c1)C2=O
3. CC1(O)CC2C(CC1O)C2(C)C (centres undefined)
4. CC#CC1(O)CCC2C3CCC4=CC(=O)CCC4=C3C(c3ccc(N(C)C)cc3)CC21C (centres undefined)
5. Clc1ccc(C(OCCN2CCCCC2)c2ccccc2)cc1 (centres undefined)

["0.989 (inactive)", "0.979 (inactive)", "0.998 (inactive)", "0.999 (inactive)", "1.02 (inactive)"]

Record normalized growth for all entries; do not skip any.
1. COC(=O)C1=COC(OC2OC(CO)C(O)C(O)C2O)C2C(C)CC(=O)C12 (centres undefined)
2. NCCCS(=O)(=O)O
3. Nc1ncn[nH]1
4. CCC(C)C(=O)O[C@@H]1C[C@@]2(C)[C@H](c3ccoc3)OC(=O)CC23OC2(C)O[C@]14[C@]1(C)[C@@H](CC(=O)OC)C5(C)CC1(O)[C@](O)(C5OC(=O)C1(C)OC1C)[C@@H](OC(C)=O)[C@]34O2 (some centres undefined)
5. CCCCCCCCCCC[C@@H](C[C@H]1OC(=O)[C@H]1CCCCCC)OC(=O)[C@@H](CC(C)C)NC=O
6. Cn1c(=O)c2c(ncn2CC(O)CO)n(C)c1=O (centres undefined)
7. C=CC[C@]1(O)CCC2C3CCC4=CC(=O)CCC4=C3C=C[C@@]21C (some centres undefined)

1: 1.02 (inactive); 2: 1.01 (inactive); 3: 1.01 (inactive); 4: 1 (inactive); 5: 0.997 (inactive); 6: 0.987 (inactive); 7: 0.995 (inactive)
